B1: Hairpin Ribozyme (parent)
chain: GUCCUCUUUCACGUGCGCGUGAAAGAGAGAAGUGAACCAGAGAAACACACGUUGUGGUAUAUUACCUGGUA

Variants of: B1
protocol_notes: self-cleavage, relative activity (ratio to wild type); higher = more cleavage; co-transcriptional
readout_kind: self-cleavage
Reply with the value as a number alone.

[
  {
    "variant_designation": "G15U G25U",
    "observed_value": 0.778
  },
  {
    "variant_designation": "A24G A41G",
    "observed_value": 0.78
  },
  {
    "variant_designation": "A47U U55C",
    "observed_value": 0.203
  },
  {
    "variant_designation": "C46U U63G",
    "observed_value": 0.221
  },
  {
    "variant_designation": "U7G A11G",
    "observed_value": 0.734
  }
]

Provide self-cleavage value for the following variant: G27A G29A
0.189

Provide self-cleavage value for the following variant: A41G U70C
0.981

Provide self-cleavage value for the following variant: G19U U60A
0.804

Just for reference, the RNAGym collection of RNA variant scans (doi:10.7554/elife.80360) is where these values come from.
